- measurement.description: Physical stability of drug substance crystals at 40° C./75% RH (HPLC degradant, XRD/TG transformation)
- Type: physicochemical
- condition.label: 40° C./75% RH without closure; analysis XRD or TG
measurement.type: 50% Transform time

Cc1nc(-c2ccc(OCC(C)C)c(C#N)c2)sc1C(=O)O [Crystal A]
(Not changed)
Cc1nc(-c2ccc(OCC(C)C)c(C#N)c2)sc1C(=O)O [Crystal G]
(Not changed)
Cc1nc(-c2ccc(OCC(C)C)c(C#N)c2)sc1C(=O)O [Crystal C]
(Not changed)

====

- measurement.description: Physical stability of drug substance crystals at 40° C./75% RH (HPLC degradant, XRD/TG transformation)
- Assay type: physicochemical
- condition.label: 40° C./75% RH with closure; analysis XRD or TG
measurement.type: 50% Transform time

Cc1nc(-c2ccc(OCC(C)C)c(C#N)c2)sc1C(=O)O [Crystal G]
(Not changed)
Cc1nc(-c2ccc(OCC(C)C)c(C#N)c2)sc1C(=O)O [Crystal C]
(Not changed)
Cc1nc(-c2ccc(OCC(C)C)c(C#N)c2)sc1C(=O)O [Crystal A]
(Not changed)

The values you see were collected from patent US7361676B2.
